This collection of values is drawn from the supplement of paper PMC3150612.

# System: Drosophila melanogaster
# protocol_summary: olfactory response index (dipstick assay) (fraction of flies (RI; 1 aversion, 0.5 indifferent, 0 attraction)); higher = stronger aversion to the odorant
# condition_set: genotype (tubulin-GAL4 x UAS-RNAi line; control = progenitor): obp 56h; odorant concentration: 1% v/v; male
Entries and their olfactory response index values follow.
quantity_kind: olfactory response index

{"compound": "CCC/C=C/C=O [(E)-2-hexenal]", "quantity_kind": "olfactory response index", "experimental_value": 0.55}
{"compound": "Cc1cnccn1", "quantity_kind": "olfactory response index", "experimental_value": 0.233}
{"compound": "C=C(C)[C@@H]1CC=C(C)C(=O)C1 [(R)-carvone]", "quantity_kind": "olfactory response index", "experimental_value": 0.306}
{"compound": "OCCc1ccccc1", "quantity_kind": "olfactory response index", "experimental_value": 0.106}
{"compound": "C=C(C)[C@H]1CC=C(C)C(=O)C1 [(S)-carvone]", "quantity_kind": "olfactory response index", "experimental_value": 0.504}
{"compound": "COC(=O)c1ccccc1O [methyl salicylate]", "quantity_kind": "olfactory response index", "experimental_value": 0.147}
{"compound": "CC(C)=CCC/C(C)=C/CO", "quantity_kind": "olfactory response index", "experimental_value": 0.197}
{"compound": "CCCCCC(C)=O", "quantity_kind": "olfactory response index", "experimental_value": 0.393}
{"compound": "CC(=O)c1ccccc1", "quantity_kind": "olfactory response index", "experimental_value": 0.657}
